target: Prothrombin (Homo sapiens) (UniProt P00734); assay: Inhibition of human thrombin at 10 uM using Boc-Phe-Ser-Arg-AMC substrate after 30 mins by spectrophotometric assay
Calls of active or inactive are those of the source. No cut-off for these calls is given here. Residues, ends and D or L forms follow the SMILES beside them.
endpoint_name: inhibition

{"compound": "CSCC[C@H](NC(=O)[C@H](CC(C)C)NC(=O)[C@H](CC(=O)O)NC(=O)[C@H](CCC(=O)O)NC(=O)[C@H](Cc1ccc(O)cc1)NC(=O)[C@H](CS)NC(=O)[C@H](C)NC(=O)[C@@H](NC(=O)[C@H](CCCNC(=N)N)NC(=O)[C@H](Cc1c[nH]c2ccccc12)NC(=O)[C@@H]1CCCN1C(=O)[C@H](C)NC(=O)[C@H](CS)NC(=O)[C@H](C)N)[C@@H](C)O)C(=O)N[C@@H](Cc1c[nH]c2ccccc12)C(=O)N[C@@H](CS)C(=O)NCC(N)=O (H-ACAPWRTACYEDLMWCG-NH2)", "endpoint_name": "inhibition", "result": "inactive"}
{"compound": "CC[C@H](C)[C@H](NC(=O)[C@H](CCC(=O)O)NC(=O)[C@@H](NC(=O)[C@@H]1CCCN1C(=O)[C@H](CS)NC(=O)[C@H](Cc1ccc(O)cc1)NC(=O)[C@H](CCCNC(=N)N)NC(=O)[C@H](CCCNC(=N)N)NC(=O)[C@H](CCC(=O)O)NC(=O)[C@@H](NC(=O)[C@H](CO)NC(=O)[C@H](CS)NC(=O)[C@H](C)N)[C@@H](C)O)[C@@H](C)CC)C(=O)N[C@@H](Cc1ccccc1)C(=O)N1CCC[C@H]1C(=O)N[C@@H](CS)C(=O)NCC(N)=O (H-ACSTERRYCPIEIFPCG-NH2)", "endpoint_name": "inhibition", "result": "inactive"}

====

assay: Chemical stability of compound assessed as drug cleavage in presence of plasma kallikrein after 24 hrs at 37 degC by mass spectrometric analysis; format: physicochemical; conditions: read-out: Activity
Starred links: 1 amine or outer side, 2 acyl side, 3 side chain; linkers in the order of their positions; H or OH if unused. Positions of bridges follow the written chain, without caps; N, C: chain ends. Residues, ends and D or L forms follow the SMILES beside them. TBMB = c1c(C[*:1])cc(C[*:3])cc1C[*:2]
endpoint_name: metabolised at 24 h (%)
Write it as a number; the unit % goes unstated.

Entry CC(C)C[C@@H]1NC(=O)[C@H](C)NC(=O)[C@H](CCC(=O)O)NC(=O)[C@H](CC(=O)O)NC(=O)[C@H](C)NC(=O)[C@@H]2CCCN2C(=O)[C@@H]2CSCc3cc(cc(c3)CSC[C@@H](C(=O)NCC(N)=O)NC1=O)CSC[C@H](NC(=O)[C@H](C)N)C(=O)N[C@@H](CO)C(=O)N[C@@H](CC(=O)O)C(=O)N[C@@H](CCCNC(=N)N)C(=O)N[C@@H](Cc1ccccc1)C(=O)N[C@@H](CCCNC(=N)N)C(=O)N[C@@H](CC(N)=O)C(=O)N2 (H-ACSDRFRNCPADEALCG-NH2; linker 2-9-16 via TBMB) : reported metabolised at 24 h = ?
90

====

target: Plasma kallikrein (Homo sapiens); assay: Inhibition of human plasma kallikrein using Z-Phe-Arg-AMC substrate after 30 mins by spectrophotometric assay
Starred links: 1 amine or outer side, 2 acyl side, 3 side chain; linkers in the order of their positions; H or OH if unused. Positions of bridges follow the written chain, without caps; N, C: chain ends. Residues, ends and D or L forms follow the SMILES beside them. TBMB = c1c(C[*:1])cc(C[*:3])cc1C[*:2]
endpoint_name: pIC50
Please keep in mind that pIC50 is minus log10 of the molar concentration; only the number is needed.

Entry CC(C)[C@@H]1NC(=O)[C@@H]2CCCN2C(=O)[C@@H]2CSCc3cc(cc(c3)CSC[C@@H](C(=O)NCC(N)=O)NC(=O)[C@H](C)NC(=O)[C@H](CO)NC(=O)[C@H](CCC(=O)O)NC(=O)[C@H](CO)NC1=O)CSC[C@H](NC(=O)[C@H](C)N)C(=O)N[C@@H](CO)C(=O)N[C@@H](CC(=O)O)C(=O)N[C@@H](CCCNC(=N)N)C(=O)N[C@@H](Cc1ccccc1)C(=O)N[C@@H](CCCNC(=N)N)C(=O)N[C@@H](CC(N)=O)C(=O)N2 (H-ACSDRFRNCPVSESACG-NH2; linker 2-9-16 via TBMB) : reported pIC50 = ?
7.30

====

target: Plasma kallikrein (Homo sapiens); test: Inhibition of human plasma kallikrein using Z-Phe-Arg-AMC substrate after 30 mins by spectrophotometric assay
Starred links: 1 amine or outer side, 2 acyl side, 3 side chain; linkers in the order of their positions; H or OH if unused. Positions of bridges follow the written chain, without caps; N, C: chain ends. Residues, ends and D or L forms follow the SMILES beside them. TBMB = c1c(C[*:1])cc(C[*:3])cc1C[*:2]
endpoint_name: pIC50
Please keep in mind that pIC50 is minus log10 of the molar concentration; only the number is needed.

{"molecule": "CSCC[C@H](NC(=O)[C@H](CC(C)C)NC(=O)[C@H](CC(=O)O)NC(=O)[C@H](CCC(=O)O)NC(=O)[C@H](Cc1ccc(O)cc1)NC(=O)[C@H](CS)NC(=O)[C@H](C)NC(=O)[C@@H](NC(=O)[C@H](CCCN=C(N)N)NC(=O)[C@H](Cc1c[nH]c2ccccc12)NC(=O)[C@@H]1CCCN1C(=O)[C@H](C)NC(=O)[C@H](CS)NC(=O)[C@H](C)N)[C@@H](C)O)C(=O)N[C@@H](Cc1c[nH]c2ccccc12)C(=O)N[C@@H](CS)C(=O)NCC(N)=O (H-ACAPWRTACYEDLMWCG-NH2)", "result_number": 5.24}

Find the measured pIC50: item CC(C)C[C@@H]1NC(=O)[C@H]([C@@H](C)O)NC(=O)[C@H](Cc2ccc(O)cc2)NC(=O)[C@@H]2CCCN2C(=O)[C@@H]2CSCc3cc(cc(c3)CSC[C@@H](C(=O)NCC(N)=O)NC(=O)[C@H](CC(=O)O)NC(=O)[C@H](Cc3cnc[nH]3)NC1=O)CSC[C@H](NC(=O)[C@H](C)N)C(=O)N[C@@H](CO)C(=O)N[C@@H](CC(=O)O)C(=O)N[C@@H](CCCNC(=N)N)C(=O)N[C@@H](Cc1ccccc1)C(=O)N[C@@H](CCCNC(=N)N)C(=O)N[C@@H](CC(N)=O)C(=O)N2 (H-ACSDRFRNCPYTLHDCG-NH2; linker 2-9-16 via TBMB) , target or system Plasma kallikrein (Homo sapiens).
7.52

Find the measured pIC50: item CC(C)[C@@H]1NC(=O)[C@H](CCCNC(=N)N)NC(=O)[C@@H]2CSCc3cc(cc(c3)CSC[C@@H](C(=O)NCC(N)=O)NC(=O)[C@H](CCCCN)NC(=O)CNC(=O)[C@H](Cc3ccccc3)NC(=O)[C@H](CC(N)=O)NC1=O)CSC[C@H](NC(=O)[C@H](C)N)C(=O)N[C@@H](Cc1c[nH]c3ccccc13)C(=O)N[C@@H](CCC(N)=O)C(=O)N[C@@H](C(C)C)C(=O)N[C@@H](CCC(N)=O)C(=O)N[C@@H](C(C)C)C(=O)N[C@@H](CC(N)=O)C(=O)N2 (H-ACWQVQVNCRVNFGKCG-NH2; linker 2-9-16 via TBMB) , target or system Plasma kallikrein (Homo sapiens).
6.10

Find the measured pIC50: item CC(C)C[C@@H]1NC(=O)[C@@H]2CCCN2C(=O)[C@@H]2CSCc3cc(cc(c3)CSC[C@@H](C(=O)NCC(N)=O)NC(=O)[C@H](C(C)O)NC(=O)CNC(=O)[C@H](CO)NC(=O)[C@H](Cc3c[nH]c4ccccc34)NC1=O)CSC[C@H](NC(=O)[C@H](C)N)C(=O)N[C@@H](CO)C(=O)N[C@@H](CC(=O)O)C(=O)N[C@@H](CCCNC(=N)N)C(=O)N[C@@H](Cc1ccccc1)C(=O)N[C@@H](CCCNC(=N)N)C(=O)N[C@@H](CC(N)=O)C(=O)N2 (single isomer, unassigned) , target or system Plasma kallikrein (Homo sapiens).
7.54

====

molecular target: Kallikrein-2 (Homo sapiens); assay: Binding affinity to human kallikrein 2
Sequence (P20151 whole entry): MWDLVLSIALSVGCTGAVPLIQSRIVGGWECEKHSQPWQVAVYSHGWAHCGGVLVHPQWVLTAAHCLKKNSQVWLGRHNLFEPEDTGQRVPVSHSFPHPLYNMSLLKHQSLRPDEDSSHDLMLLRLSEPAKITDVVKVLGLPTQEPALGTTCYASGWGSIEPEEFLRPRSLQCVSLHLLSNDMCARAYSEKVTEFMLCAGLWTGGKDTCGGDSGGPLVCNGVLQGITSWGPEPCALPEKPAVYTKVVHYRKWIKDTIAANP
endpoint_name: pIC50
Please keep in mind that pIC50 is minus log10 of the molar concentration; only the number is needed.

Find the measured pIC50: item H-SRFKVWWAAF-OH , target or system Kallikrein-2 (Homo sapiens).
5.47

====

molecular target: Plasma kallikrein (Homo sapiens, UniProt P03952); assay: Inhibition of human plasma kallikrein using Z-Phe-Arg-AMC substrate after 30 mins by spectrophotometric assay
Sequence (P03952 20-390 limits assumed): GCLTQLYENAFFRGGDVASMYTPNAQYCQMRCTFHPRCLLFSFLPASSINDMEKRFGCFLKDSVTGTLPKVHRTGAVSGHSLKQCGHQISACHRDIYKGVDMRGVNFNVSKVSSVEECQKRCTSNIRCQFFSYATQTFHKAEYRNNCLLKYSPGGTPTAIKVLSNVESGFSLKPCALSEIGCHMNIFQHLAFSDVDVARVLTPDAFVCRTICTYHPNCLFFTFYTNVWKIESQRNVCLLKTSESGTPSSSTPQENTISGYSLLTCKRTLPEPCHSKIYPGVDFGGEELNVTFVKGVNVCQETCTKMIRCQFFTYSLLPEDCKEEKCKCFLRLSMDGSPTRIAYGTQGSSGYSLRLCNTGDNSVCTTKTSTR
Sequence (P03952 391-638 limits assumed): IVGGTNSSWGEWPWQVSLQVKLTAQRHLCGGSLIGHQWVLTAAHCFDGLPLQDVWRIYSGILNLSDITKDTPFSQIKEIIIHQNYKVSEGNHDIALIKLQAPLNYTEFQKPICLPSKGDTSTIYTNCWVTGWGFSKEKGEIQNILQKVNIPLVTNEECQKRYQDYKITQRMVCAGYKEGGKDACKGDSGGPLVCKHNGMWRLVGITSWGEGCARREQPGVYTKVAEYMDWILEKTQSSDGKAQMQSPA
Starred links: 1 amine or outer side, 2 acyl side, 3 side chain; linkers in the order of their positions; H or OH if unused. Positions of bridges follow the written chain, without caps; N, C: chain ends. Residues, ends and D or L forms follow the SMILES beside them. TBMB = c1c(C[*:1])cc(C[*:3])cc1C[*:2]
endpoint_name: IC50 (nM)
Write it as a number; the unit nM goes unstated.

Recorded IC50, per entry:
{"compound": "CC(C)[C@@H]1NC(=O)[C@H](CCCNC(=N)N)NC(=O)[C@@H]2CSCc3cc(cc(c3)CSC[C@@H](C(=O)NCC(N)=O)NC(=O)[C@@H]3CCCN3C(=O)[C@H]([C@H](C)O)NC(=O)[C@H](Cc3c[nH]c4ccccc34)NC(=O)[C@H](CC(N)=O)NC1=O)CSC[C@H](NC(=O)[C@H](C)N)C(=O)NCC(=O)N[C@@H]([C@H](C)O)C(=O)NCC(=O)N[C@@H](CCC(=O)O)C(=O)NCC(=O)N[C@@H](CCCNC(=N)N)C(=O)N2", "IC50 (nM)": 39.1}
{"compound": "CC[C@H](C)[C@@H]1NC(=O)[C@H](CCC(=O)O)NC(=O)[C@H]([C@@H](C)CC)NC(=O)[C@@H]2CCCN2C(=O)[C@@H]2CSCc3cc(cc(c3)CSC[C@@H](C(=O)NCC(N)=O)NC(=O)[C@@H]3CCCN3C(=O)[C@H](Cc3ccccc3)NC1=O)CSC[C@H](NC(=O)[C@H](C)N)C(=O)N[C@@H](CO)C(=O)N[C@@H]([C@H](C)O)C(=O)N[C@@H](CCC(=O)O)C(=O)N[C@@H](CCCNC(=N)N)C(=O)N[C@@H](CCCNC(=N)N)C(=O)N[C@@H](Cc1ccc(O)cc1)C(=O)N2", "IC50 (nM)": 33}

Entry CSCC[C@@H]1NC(=O)[C@H](CO)NC(=O)[C@H](Cc2c[nH]c3ccccc23)NC(=O)[C@@H]2CCCN2C(=O)[C@@H]2CSCc3cc(cc(c3)CSC[C@H](NC(=O)[C@H](C)N)C(=O)N[C@@H](CC(=O)O)C(=O)N[C@@H](CO)C(=O)N[C@@H](CCCNC(=N)N)C(=O)N[C@@H](Cc3ccccc3)C(=O)N[C@@H](CCCNC(=N)N)C(=O)N[C@@H](CC(N)=O)C(=O)N2)CSC[C@@H](C(=O)NCC(N)=O)NC(=O)CNC(=O)[C@H](CO)NC1=O (H-ACDSRFRNCPWSMSGCG-NH2; linker 2-9-16 via TBMB) : reported IC50 = ?
1500
